target: Delta-type opioid receptor (Mus musculus); experiment: Agonist activity at FLAG-tagged mouse delta opioid receptor expressed in human HEK293 cells assessed as inhibition of forskolin stimulated cAMP production preincubated for 20 mins followed by forskolin stimulation and measured after 15 mins by GloSensor assay
Sequence (P32300 whole entry): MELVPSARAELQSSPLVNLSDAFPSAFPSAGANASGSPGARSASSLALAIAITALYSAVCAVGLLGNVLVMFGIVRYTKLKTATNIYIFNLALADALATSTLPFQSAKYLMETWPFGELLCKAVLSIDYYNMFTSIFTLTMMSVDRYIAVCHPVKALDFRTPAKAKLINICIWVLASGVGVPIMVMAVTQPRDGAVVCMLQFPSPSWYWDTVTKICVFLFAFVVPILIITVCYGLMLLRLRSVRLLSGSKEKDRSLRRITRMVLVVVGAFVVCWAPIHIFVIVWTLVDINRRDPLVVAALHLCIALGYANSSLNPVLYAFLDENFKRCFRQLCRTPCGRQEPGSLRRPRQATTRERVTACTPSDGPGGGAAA
ASSAY ENDPOINT: pIC50
Note: pIC50 values are expressed as the negative base-10 logarithm of concentration in M.

Here is how some compounds turned out for pIC50.
> print(dat)
                                   molecule  result.number
1  CC(C)C[C@H](NC(=O)[C@H](Cc1ccccc1)NC(=O)CNC(=O)C/C=C(\F)[C@@H](N)Cc1ccc(O)cc1)C(N)=O           7.33
2  CNC(=O)[C@H](CC(C)C)NC(=O)[C@H](Cc1ccccc1)NC(=O)CNC(=O)C/C=C(\F)[C@@H](N)Cc1ccc(O)cc1           7.30
3  CC(C)C[C@H](NC(=O)[C@H](Cc1ccccc1)NC(=O)CNC(=O)C/C=C(\F)[C@@H](N)Cc1ccc(O)cc1)C(=O)NC1CC1           6.82
4  CC(C)C[C@H](NC(=O)[C@H](Cc1ccccc1)NC(=O)CNC(=O)C/C=C(\F)[C@@H](N)Cc1ccc(O)cc1)C(=O)N(C)C           6.37
5  CC(C)C[C@H](NC(=O)[C@H](Cc1ccccc1)NC(=O)CNC(=O)C/C=C(\F)[C@@H](N)Cc1ccc(O)cc1)C(=O)O           7.47

Prompt: Fill blank: measured pIC50 of the compound `CCNC(=O)[C@H](CC(C)C)NC(=O)[C@H](Cc1ccccc1)NC(=O)CNC(=O)C/C=C(\F)[C@@H](N)Cc1ccc(O)cc1` is ____.
Response: 7.18

---

molecular target: UniProtKB P42866; experiment: Agonist activity at FLAG-tagged mouse mu opioid receptor expressed in human HEK293 cells assessed as inhibition of forskolin stimulated cAMP production preincubated for 20 mins followed by forskolin stimulation and measured after 15 mins by GloSensor assay
Sequence (P42866 whole entry): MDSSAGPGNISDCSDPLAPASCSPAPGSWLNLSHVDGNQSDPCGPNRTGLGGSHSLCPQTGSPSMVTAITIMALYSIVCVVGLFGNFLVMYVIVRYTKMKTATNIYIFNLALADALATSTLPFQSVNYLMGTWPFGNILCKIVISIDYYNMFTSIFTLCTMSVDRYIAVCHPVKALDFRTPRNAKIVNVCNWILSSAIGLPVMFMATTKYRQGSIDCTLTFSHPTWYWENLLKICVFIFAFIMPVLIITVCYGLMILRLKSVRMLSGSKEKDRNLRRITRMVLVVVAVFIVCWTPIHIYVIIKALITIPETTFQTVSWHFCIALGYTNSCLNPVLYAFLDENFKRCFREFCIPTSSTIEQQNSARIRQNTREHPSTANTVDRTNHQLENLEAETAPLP
ASSAY ENDPOINT: IC50 (nM)
Please give a number only; it is taken to be in nM.

Here is how some compounds turned out for IC50.
> print(dat)
                                   molecule  experimental.target  assay.endpoint  result.number
1  CC(C)C[C@H](NC(=O)[C@H](Cc1ccccc1)NC(=O)CNC(=O)C/C=C(\F)[C@@H](N)Cc1ccc(O)cc1)C(=O)N(C)C     UniProtKB P42866            IC50           1000
2  CC(C)C[C@H](NC(=O)[C@H](Cc1ccccc1)NC(=O)CNC(=O)C/C=C(\F)[C@@H](N)Cc1ccc(O)cc1)C(=O)O     UniProtKB P42866            IC50            363
3  CCNC(=O)[C@H](CC(C)C)NC(=O)[C@H](Cc1ccccc1)NC(=O)CNC(=O)C/C=C(\F)[C@@H](N)Cc1ccc(O)cc1     UniProtKB P42866            IC50            178
4  CNC(=O)[C@H](CC(C)C)NC(=O)[C@H](Cc1ccccc1)NC(=O)CNC(=O)C/C=C(\F)[C@@H](N)Cc1ccc(O)cc1     UniProtKB P42866            IC50           42.7
5  CC(C)C[C@H](NC(=O)[C@H](Cc1ccccc1)NC(=O)CNC(=O)C/C=C(\F)[C@@H](N)Cc1ccc(O)cc1)C(N)=O     UniProtKB P42866            IC50            186

Let us move to another entry and its IC50.
Prompt: Fill blank: measured IC50 of the compound `CC(C)C[C@H](NC(=O)[C@H](Cc1ccccc1)NC(=O)CNC(=O)C/C=C(\F)[C@@H](N)Cc1ccc(O)cc1)C(=O)NC1CC1` is ____.
Response: 126

---

Heads up, these compounds all have pKi values measured for Mu-type opioid receptor (Homo sapiens, UniProt P35372).
Note: pKi values are expressed as the negative base-10 logarithm of concentration in M.

Here is how some compounds turned out for pKi.
> print(dat)
                                   molecule  assay.endpoint  result.number
1  CC(C)C[C@H](NC(=O)[C@H](Cc1ccccc1)NC(=O)CNC(=O)C/C=C(\F)[C@@H](N)Cc1ccc(O)cc1)C(=O)NC1CC1             pKi           7.58
2  CC(C)C[C@H](NC(=O)[C@H](Cc1ccccc1)NC(=O)CNC(=O)C/C=C(\F)[C@@H](N)Cc1ccc(O)cc1)C(N)=O             pKi           8.15
3  CC(C)C[C@H](NC(=O)[C@H](Cc1ccccc1)NC(=O)CNC(=O)C/C=C(\F)[C@@H](N)Cc1ccc(O)cc1)C(=O)N(C)C             pKi           7.07

Prompt: Fill blank: measured pKi of the compound `CCNC(=O)[C@H](CC(C)C)NC(=O)[C@H](Cc1ccccc1)NC(=O)CNC(=O)C/C=C(\F)[C@@H](N)Cc1ccc(O)cc1` is ____.
Response: 7.70

Prompt: Fill blank: measured pKi of the compound `CNC(=O)[C@H](CC(C)C)NC(=O)[C@H](Cc1ccccc1)NC(=O)CNC(=O)C/C=C(\F)[C@@H](N)Cc1ccc(O)cc1` is ____.
Response: 8.00

---

target: Delta-type opioid receptor (Homo sapiens, UniProt P41143); test: Displacement of [3H]DPDPE from human delta opioid receptor expressed in CHO cell membrane measured after 90 mins by liquid scintillation counting method
Sequence (P41143 whole entry): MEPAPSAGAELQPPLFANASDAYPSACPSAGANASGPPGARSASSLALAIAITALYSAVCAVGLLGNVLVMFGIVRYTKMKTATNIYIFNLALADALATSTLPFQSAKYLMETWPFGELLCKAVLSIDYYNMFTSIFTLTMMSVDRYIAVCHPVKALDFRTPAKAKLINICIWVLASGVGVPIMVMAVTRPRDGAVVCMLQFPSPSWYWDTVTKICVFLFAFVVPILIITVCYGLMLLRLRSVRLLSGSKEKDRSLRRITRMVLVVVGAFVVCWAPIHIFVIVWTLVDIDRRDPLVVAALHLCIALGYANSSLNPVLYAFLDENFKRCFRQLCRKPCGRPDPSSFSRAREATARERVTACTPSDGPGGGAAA
Rule: Ki below 90 nM gives condition met, anything at or above gives condition not met.

Record excerpt, results attached:
> print(dat)
                                   molecule                       experimental.target  qualitative.label
1  CCNC(=O)[C@H](CC(C)C)NC(=O)[C@H](Cc1ccccc1)NC(=O)CNC(=O)C/C=C(\F)[C@@H](N)Cc1ccc(O)cc1  Delta-type opioid receptor (Homo sapiens, UniProt P41143)      condition met
2  CC(C)C[C@H](NC(=O)[C@H](Cc1ccccc1)NC(=O)CNC(=O)C/C=C(\F)[C@@H](N)Cc1ccc(O)cc1)C(=O)N(C)C  Delta-type opioid receptor (Homo sapiens, UniProt P41143)  condition not met
3  CC(C)C[C@H](NC(=O)[C@H](Cc1ccccc1)NC(=O)CNC(=O)C/C=C(\F)[C@@H](N)Cc1ccc(O)cc1)C(=O)NC1CC1  Delta-type opioid receptor (Homo sapiens, UniProt P41143)  condition not met
4  CC(C)C[C@H](NC(=O)[C@H](Cc1ccccc1)NC(=O)CNC(=O)C/C=C(\F)[C@@H](N)Cc1ccc(O)cc1)C(N)=O  Delta-type opioid receptor (Homo sapiens, UniProt P41143)  condition not met

Pending molecule:
Prompt: Regarding `CNC(=O)[C@H](CC(C)C)NC(=O)[C@H](Cc1ccccc1)NC(=O)CNC(=O)C/C=C(\F)[C@@H](N)Cc1ccc(O)cc1` , kindly confirm whether its Ki is beneath 90 nM.
Response: condition met

---

biological target: UniProt:P35372; test: Agonist activity at human mu opioid receptor expressed in CHO cells co-expressing beta-arrestin2 assessed as beta-arrestin2 recruitment measured after 90 mins by PathHunter assay
ASSAY ENDPOINT: pEC50
Note: pEC50 values are expressed as the negative base-10 logarithm of concentration in M.

Here is how some molecules turned out for pEC50.
> print(dat)
                                   molecule  assay.endpoint  result.number
1  CNC(=O)[C@H](CC(C)C)NC(=O)[C@H](Cc1ccccc1)NC(=O)CNC(=O)C/C=C(\F)[C@@H](N)Cc1ccc(O)cc1           pEC50           5.14
2  CC(C)C[C@H](NC(=O)[C@H](Cc1ccccc1)NC(=O)CNC(=O)C/C=C(\F)[C@@H](N)Cc1ccc(O)cc1)C(=O)NC1CC1           pEC50           5.37
3  CCNC(=O)[C@H](CC(C)C)NC(=O)[C@H](Cc1ccccc1)NC(=O)CNC(=O)C/C=C(\F)[C@@H](N)Cc1ccc(O)cc1           pEC50           5.64
4  CC(C)C[C@H](NC(=O)[C@H](Cc1ccccc1)NC(=O)CNC(=O)C/C=C(\F)[C@@H](N)Cc1ccc(O)cc1)C(=O)N(C)C           pEC50           4.75

Let us move to another entry and its pEC50.
Prompt: Fill blank: measured pEC50 of the molecule `CC(C)C[C@H](NC(=O)[C@H](Cc1ccccc1)NC(=O)CNC(=O)C/C=C(\F)[C@@H](N)Cc1ccc(O)cc1)C(N)=O` is ____.
Response: 5.58
